Data credit: the NIST ThermoML archive (doi:10.1016/j.tca.2018.04.007)

# Condition Label: 303.15 K; 101.33 kPa; Liquid; Capillary tube (Ostwald / Ubbelohde) method
Measurement Type: viscosity (mPa·s)
One number for each entry, in mPa·s.

Please review the entries below; each comes with its answer.
[
  {
    "Molecule": "CCCC[P+](C)(CCCC)CCCC.[Cl-] [methyltributylphosphonium chloride]",
    "viscosity, mPa·s": 4692
  },
  {
    "Molecule": "CCCC[P+](C)(CCCC)CCCC.COS(=O)(=O)[O-] [tributylmethylphosphonium methyl sulfate]",
    "viscosity, mPa·s": 650.6
  },
  {
    "Molecule": "COS(=O)(=O)[O-].C[n+]1ccccc1 [1-methylpyridinium methylsulfate]",
    "viscosity, mPa·s": 69.2
  },
  {
    "Molecule": "CCCC[P+](C)(CCCC)CCCC.O=S(=O)([N-]S(=O)(=O)C(F)(F)F)C(F)(F)F",
    "viscosity, mPa·s": 156
  }
]

Input: Suppose we examine the molecule CCCCn1cc[n+](C)c1.COS(=O)(=O)[O-] [1-butyl-3-methylimidazolium methyl sulfate] ; what viscosity value has been reported?
Output: 151.9

* * *

# Condition Label: 323.15 K; 101.33 kPa; Liquid; Direct current cell with electrodes
Measurement Type: log10 of electrical conductivity (log10 of the value in S/m)
Could you please treat all values as log10 of electrical conductivity in S/m?

Please review the entries below; each comes with its answer.
[
  {
    "Molecule": "CCCC[P+](C)(CCCC)CCCC.O=S(=O)([N-]S(=O)(=O)C(F)(F)F)C(F)(F)F",
    "log10 of electrical conductivity": -0.73
  },
  {
    "Molecule": "CCCC[P+](C)(CCCC)CCCC.COS(=O)(=O)[O-] [tributylmethylphosphonium methyl sulfate]",
    "log10 of electrical conductivity": -1.32
  },
  {
    "Molecule": "CCCC[P+](C)(CCCC)CCCC.[Cl-] [methyltributylphosphonium chloride]",
    "log10 of electrical conductivity": -1.54
  },
  {
    "Molecule": "COS(=O)(=O)[O-].C[n+]1ccccc1 [1-methylpyridinium methylsulfate]",
    "log10 of electrical conductivity": -0.01
  }
]

Here is the next item to consider.
Input: Suppose we examine the molecule CCCCn1cc[n+](C)c1.COS(=O)(=O)[O-] [1-butyl-3-methylimidazolium methyl sulfate] ; what log10 of electrical conductivity value has been reported?
Output: -0.37

* * *

# Condition Label: 313.15 K; 101.33 kPa; Liquid; Direct current cell with electrodes
Measurement Type: electrical conductivity (S/m)
Numbers only, in S/m.

[
  {
    "Compound": "COS(=O)(=O)[O-].C[n+]1ccccc1 [1-methylpyridinium methylsulfate]",
    "Unit": "S/m",
    "Recorded Value": 0.683
  },
  {
    "Compound": "CCCC[P+](C)(CCCC)CCCC.COS(=O)(=O)[O-] [tributylmethylphosphonium methyl sulfate]",
    "Unit": "S/m",
    "Recorded Value": 0.0278
  },
  {
    "Compound": "CCCC[P+](C)(CCCC)CCCC.O=S(=O)([N-]S(=O)(=O)C(F)(F)F)C(F)(F)F",
    "Unit": "S/m",
    "Recorded Value": 0.123
  },
  {
    "Compound": "CCCC[P+](C)(CCCC)CCCC.[Cl-] [methyltributylphosphonium chloride]",
    "Unit": "S/m",
    "Recorded Value": 0.0131
  }
]

Here is the next item to consider.
Input: Suppose we examine the compound CCCCn1cc[n+](C)c1.COS(=O)(=O)[O-] [1-butyl-3-methylimidazolium methyl sulfate] ; what electrical conductivity value has been reported?
Output: 0.279

* * *

Can you tell me thermal conductivity for the items I'm about to list?
# Condition Label: 303.15 K; 101.33 kPa; Liquid; transient hot wire
Give bare numbers, in W/m/K.

Please review the entries below; each comes with its answer.
[
  {
    "Molecule": "CCCC[P+](C)(CCCC)CCCC.COS(=O)(=O)[O-] [tributylmethylphosphonium methyl sulfate]",
    "thermal conductivity (W/m/K)": 0.159
  },
  {
    "Molecule": "COS(=O)(=O)[O-].C[n+]1ccccc1 [1-methylpyridinium methylsulfate]",
    "thermal conductivity (W/m/K)": 0.204
  },
  {
    "Molecule": "CCCC[P+](C)(CCCC)CCCC.O=S(=O)([N-]S(=O)(=O)C(F)(F)F)C(F)(F)F",
    "thermal conductivity (W/m/K)": 0.125
  },
  {
    "Molecule": "CCCCn1cc[n+](C)c1.COS(=O)(=O)[O-] [1-butyl-3-methylimidazolium methyl sulfate]",
    "thermal conductivity (W/m/K)": 0.176
  },
  {
    "Molecule": "OCC(O)CO [glycerol]",
    "thermal conductivity (W/m/K)": 0.284
  }
]

Input: Suppose we examine the molecule CCCC[P+](C)(CCCC)CCCC.[Cl-] [methyltributylphosphonium chloride] ; what thermal conductivity value has been reported?
Output: 0.158

* * *

# Condition Label: 293.15 K; 101.33 kPa; Liquid; transient hot wire
T means recorded thermal conductivity is 0.2 W/m/K or above; F means it is below 0.2 W/m/K.

Input: Exam item: decide whether the reported thermal conductivity for OCC(O)CO [glycerol] is at least 0.2 W/m/K.
Output: T

Input: Exam item: decide whether the reported thermal conductivity for CCCC[P+](C)(CCCC)CCCC.COS(=O)(=O)[O-] [tributylmethylphosphonium methyl sulfate] is at least 0.2 W/m/K.
Output: F

Input: Exam item: decide whether the reported thermal conductivity for "CCCC[P+](C)(CCCC)CCCC.O=S(=O)([N-]S(=O)(=O)C(F)(F)F)C(F)(F)F" is at least 0.2 W/m/K.
Output: F

Input: Exam item: decide whether the reported thermal conductivity for CCCCn1cc[n+](C)c1.COS(=O)(=O)[O-] [1-butyl-3-methylimidazolium methyl sulfate] is at least 0.2 W/m/K.
Output: F

Input: Exam item: decide whether the reported thermal conductivity for CCCC[P+](C)(CCCC)CCCC.[Cl-] [methyltributylphosphonium chloride] is at least 0.2 W/m/K.
Output: F

* * *

Can you tell me refractive index for the items I'm about to list?
# Test Protocol: refractive index (Na D-line) (dimensionless)
# Condition Label: 313.15 K; 101.33 kPa; Liquid; Standard Abbe refractometry
± gives the expanded uncertainty stated by the source.

[
  {
    "Molecule": "CCCC[P+](C)(CCCC)CCCC.[Cl-] [methyltributylphosphonium chloride]",
    "refractive index": "1.4972 ± 0.0005"
  },
  {
    "Molecule": "CCCCn1cc[n+](C)c1.COS(=O)(=O)[O-] [1-butyl-3-methylimidazolium methyl sulfate]",
    "refractive index": "1.4753 ± 0.0005"
  },
  {
    "Molecule": "CCCC[P+](C)(CCCC)CCCC.O=S(=O)([N-]S(=O)(=O)C(F)(F)F)C(F)(F)F",
    "refractive index": "1.4314 ± 0.0005"
  }
]

# batch: return refractive index for each of the 2 molecules below
1. COS(=O)(=O)[O-].C[n+]1ccccc1 [1-methylpyridinium methylsulfate]
2. CCCC[P+](C)(CCCC)CCCC.COS(=O)(=O)[O-] [tributylmethylphosphonium methyl sulfate]

Output:
1.5088 ± 0.0005
1.4702 ± 0.0005

* * *

# Condition Label: 293.15 K; 101.33 kPa; Liquid; Vibrating tube method
1.0 means recorded mass density is 1000 kg/m3 or above; 0.0 means it is below 1000 kg/m3.

[
  {
    "Compound": "CCCC[P+](C)(CCCC)CCCC.O=S(=O)([N-]S(=O)(=O)C(F)(F)F)C(F)(F)F",
    "Assigned Label": 1.0
  }
]

Input: Exam item: decide whether the reported mass density for COS(=O)(=O)[O-].C[n+]1ccccc1 [1-methylpyridinium methylsulfate] is at least 1000 kg/m3.
Output: 1.0

Input: Exam item: decide whether the reported mass density for CCCCn1cc[n+](C)c1.COS(=O)(=O)[O-] [1-butyl-3-methylimidazolium methyl sulfate] is at least 1000 kg/m3.
Output: 1.0

Input: Exam item: decide whether the reported mass density for CCCC[P+](C)(CCCC)CCCC.COS(=O)(=O)[O-] [tributylmethylphosphonium methyl sulfate] is at least 1000 kg/m3.
Output: 1.0

Input: Exam item: decide whether the reported mass density for CCCC[P+](C)(CCCC)CCCC.[Cl-] [methyltributylphosphonium chloride] is at least 1000 kg/m3.
Output: 0.0

* * *

# Condition Label: 303.15 K; 101.33 kPa; Liquid; Vibrating tube method
mass density vs 1000 kg/m3: less than gives true; not less than gives false.

These recorded examples may help you get a feel for the data.
[
  {
    "Compound": "CCCC[P+](C)(CCCC)CCCC.O=S(=O)([N-]S(=O)(=O)C(F)(F)F)C(F)(F)F",
    "Assigned Label": "false"
  },
  {
    "Compound": "CCCC[P+](C)(CCCC)CCCC.[Cl-] [methyltributylphosphonium chloride]",
    "Assigned Label": "true"
  },
  {
    "Compound": "CCCC[P+](C)(CCCC)CCCC.COS(=O)(=O)[O-] [tributylmethylphosphonium methyl sulfate]",
    "Assigned Label": "false"
  },
  {
    "Compound": "CCCCn1cc[n+](C)c1.COS(=O)(=O)[O-] [1-butyl-3-methylimidazolium methyl sulfate]",
    "Assigned Label": "false"
  }
]

Input: Threshold test, mass density < 1000 kg/m3: COS(=O)(=O)[O-].C[n+]1ccccc1 [1-methylpyridinium methylsulfate]
Output: false
